Cited source for all entries: patent US20250236608A1

Target: EGFR (d746-750) (Homo sapiens (Human), UniProt P00533, DEL746-750)
Sequence (P00533 other isoform, or with tags, fused parts or gaps del 1-694/del 746-750 limits assumed): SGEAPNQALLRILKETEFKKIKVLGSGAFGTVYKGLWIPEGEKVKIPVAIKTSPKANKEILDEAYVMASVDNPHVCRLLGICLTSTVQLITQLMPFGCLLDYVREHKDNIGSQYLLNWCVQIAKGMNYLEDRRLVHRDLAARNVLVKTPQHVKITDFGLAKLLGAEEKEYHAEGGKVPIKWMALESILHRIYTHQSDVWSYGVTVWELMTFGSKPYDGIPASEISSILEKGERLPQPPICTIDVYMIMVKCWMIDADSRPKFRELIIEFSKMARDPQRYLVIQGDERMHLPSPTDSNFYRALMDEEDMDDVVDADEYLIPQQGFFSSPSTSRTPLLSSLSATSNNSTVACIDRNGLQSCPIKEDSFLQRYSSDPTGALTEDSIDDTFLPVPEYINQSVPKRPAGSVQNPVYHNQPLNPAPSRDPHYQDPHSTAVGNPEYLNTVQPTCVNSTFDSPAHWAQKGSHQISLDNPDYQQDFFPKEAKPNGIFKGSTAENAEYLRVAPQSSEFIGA
Assay: Biochemical EGFR inhibition assay, EGFR (d746-750)
Conditions: Caliper mobility shift; 1.0 mM ATP or ATP Km; read-out: Enz EGFR_Exon19-del746-750 IC50
READOUT NAME: IC50 (nM)
Answers are plain numbers, in nM.

CCC(=O)Nc1cc2c(-c3cn(C)nc3-c3ccccc3)ncnc2cc1OCC1COC1    1.9
COc1cc2ncnc(-c3cn(C)nc3-c3ccccc3)c2nc1O[C@H](C)c1nccs1    0.8
COc1cc2ncnc(-c3cn(C)nc3-c3ccccc3)c2cc1NC(=O)c1ncccn1    0.7

Now examine the next entry.
Observed IC50 on EGFR (d746-750) (Homo sapiens (Human), UniProt P00533, DEL746-750) for COc1cc2ncnc(-c3cn(C)nc3-c3ccccc3)c2cc1NC(=O)c1ccc(F)cc1 , please.
0.9

###

Can you tell me pIC50 for the items I'm about to list?
Biological target: EGFR L858R (Homo sapiens (Human), UniProt P00533, L858R)
Sequence (P00533 25-1210 L858R): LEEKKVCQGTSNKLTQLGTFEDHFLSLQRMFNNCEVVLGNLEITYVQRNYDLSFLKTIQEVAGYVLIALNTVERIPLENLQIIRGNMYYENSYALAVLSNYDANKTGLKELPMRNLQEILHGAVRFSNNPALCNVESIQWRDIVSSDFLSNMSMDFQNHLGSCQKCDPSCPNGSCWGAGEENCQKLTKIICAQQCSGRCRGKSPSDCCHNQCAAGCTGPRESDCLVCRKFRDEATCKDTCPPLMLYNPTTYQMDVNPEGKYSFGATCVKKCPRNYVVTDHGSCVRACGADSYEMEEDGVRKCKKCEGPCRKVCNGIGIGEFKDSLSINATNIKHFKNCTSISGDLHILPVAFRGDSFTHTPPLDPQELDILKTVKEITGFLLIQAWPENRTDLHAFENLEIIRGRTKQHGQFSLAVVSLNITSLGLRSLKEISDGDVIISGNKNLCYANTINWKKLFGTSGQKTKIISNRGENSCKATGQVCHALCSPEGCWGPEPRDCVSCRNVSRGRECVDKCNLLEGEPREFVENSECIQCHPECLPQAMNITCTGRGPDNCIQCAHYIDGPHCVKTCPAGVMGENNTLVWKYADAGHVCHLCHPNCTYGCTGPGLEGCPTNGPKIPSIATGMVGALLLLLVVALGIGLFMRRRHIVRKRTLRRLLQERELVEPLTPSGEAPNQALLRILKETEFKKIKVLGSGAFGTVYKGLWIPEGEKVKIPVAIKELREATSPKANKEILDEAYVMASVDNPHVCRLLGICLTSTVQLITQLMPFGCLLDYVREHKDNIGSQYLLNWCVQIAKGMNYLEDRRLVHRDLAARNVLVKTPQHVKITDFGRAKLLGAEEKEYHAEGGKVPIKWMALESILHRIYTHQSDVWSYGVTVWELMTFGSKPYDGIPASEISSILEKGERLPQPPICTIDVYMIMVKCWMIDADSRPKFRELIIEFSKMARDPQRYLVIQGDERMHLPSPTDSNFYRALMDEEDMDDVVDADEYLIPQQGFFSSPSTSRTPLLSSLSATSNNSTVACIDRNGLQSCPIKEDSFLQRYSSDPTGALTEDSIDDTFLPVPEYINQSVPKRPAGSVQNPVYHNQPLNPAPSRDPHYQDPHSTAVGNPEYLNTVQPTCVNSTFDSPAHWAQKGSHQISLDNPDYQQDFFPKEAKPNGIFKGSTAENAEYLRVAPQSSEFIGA
Test: Biochemical EGFR inhibition assay, EGFR L858R
Conditions: Caliper mobility shift; 1.0 mM ATP or ATP Km; read-out: Enz EGFR_L858R IC50
Numbers only, as −log10 of the molar value.

CCn1ccc(C(=O)Nc2cc3c(-c4cn(C)nc4-c4ccccc4)ncnc3cc2OC)n1 [Example 202]    9.05

Field: pIC50. Fill in for each record below.
1. COc1cc2ncnc(-c3cn(C)nc3-c3ccccc3)c2cc1OC(=O)N1CCN(C)[C@H](C)[C@@H]1C [Example 98]
2. COc1cc2ncnc(-c3cn(C)nc3-c3ccc(F)cc3)c2nc1NC(=O)C12CC(N(C)C)(C1)C2 [Example 402]
3. COc1cc2ncnc(-c3cn(C)nc3-c3ccccc3)c2cc1NC(=O)c1cnn(CC(F)(F)F)c1 [Example 203]
4. COc1cc2ncnc(-c3cn(C)nc3-c3ccccc3F)c2nc1NC(=O)C1(C(F)F)CC1 [Example 366]

1: 8.17; 2: 8.51; 3: 8.68; 4: 8.85

###

Biological target: EGFR (d746-750) (Homo sapiens (Human), UniProt P00533, DEL746-750)
Experiment: Biochemical EGFR inhibition assay, EGFR (d746-750)
Conditions: Caliper mobility shift; 1.0 mM ATP or ATP Km; read-out: Enz EGFR_Exon19-del746-750 IC50
READOUT NAME: IC50
Lab note: write values as number then unit, every time.

Record excerpt, results attached:
CCn1cc(-c2ncnc3cc(OC)c(OC(=O)N4CCN(C)C[C@@H]4C)cc23)c(-c2ccccc2)n1    1.7 nM
COc1cc2ncnc(-c3cn(C)nc3-c3ccccc3)c2cc1NC(=O)c1cccnc1    1 nM

Would you kindly share the measured IC50 for COc1cc2ncnc(-c3cn(CC(F)F)nc3-c3ccccc3)c2cc1C1(O)CC1 ?
0.9 nM

###

I'd be grateful if you could share measured IC50 for these entries.
Target: EGFR (d746-750) (Homo sapiens (Human), UniProt P00533, DEL746-750)
Test: Biochemical EGFR inhibition assay, EGFR (d746-750)
Settings: Caliper mobility shift; 1.0 mM ATP or ATP Km; read-out: Enz EGFR_Exon19-del746-750 IC50
One number for each entry, in nM.

Worked cases, answers included:
COc1cc2ncnc(-c3cn(C)nc3-c3ccc(Cl)cc3)c2nc1NC(=O)C12CC(N(C)C)(C1)C2    2
CCOc1cc2ncnc(-c3cn(C)nc3-c3ccc(F)cc3)c2nc1NC(=O)[C@]12COC[C@H]1C2 (single isomer, unassigned)    0.3
COc1cc2ncnc(-c3cn(C)nc3-c3ccccc3)c2cc1-c1ccc2c(c1)CN(C)C2=O    2.2
COc1cc2ncnc(-c3cn(C)nc3-c3ccccc3)c2cc1OC(=O)N1[C@@H](C)COC[C@@H]1C    2.1

Items follow; give IC50 for each.
1. COc1cc2ncnc(-c3cn(C)nc3-c3ccccc3)c2nc1OC(C)c1cscn1 (centres unmarked)
2. CCOc1cc2ncnc(-c3cn(CC(F)F)nc3-c3ccccc3)c2cc1CO
3. COc1cc2ncnc(-c3cn(C)nc3-c3ccccc3)c2nc1-c1cccc2c1OCC(=O)N2
4. CCOc1cc2ncnc(-c3cn(C)nc3-c3ccccc3)c2cc1NC(=O)C1CC1

1. 0.8
2. 1
3. 1.1
4. 1.1

Please give IC50, item by item, for the list that follows.
1. COc1cc2ncnc(-c3cn(C)nc3-c3ccccc3)c2cc1NC(=O)[C@H](C)N(C)C (single isomer, unassigned) [Example 236]
2. CCOc1cc2ncnc(-c3cn(C)nc3-c3ccccc3)c2cc1N1CCOCC1=O
3. COc1cc2ncnc(-c3cn(CC(F)F)nc3-c3ccccc3)c2cc1[C@H](C)O (single isomer, unassigned)

1.4
9.8
1.9
